Data credit: ChEMBL document CHEMBL1156823

system_under_test: DNA repair nuclease/redox regulator APEX1 (Homo sapiens)
Sequence (P27695 whole entry): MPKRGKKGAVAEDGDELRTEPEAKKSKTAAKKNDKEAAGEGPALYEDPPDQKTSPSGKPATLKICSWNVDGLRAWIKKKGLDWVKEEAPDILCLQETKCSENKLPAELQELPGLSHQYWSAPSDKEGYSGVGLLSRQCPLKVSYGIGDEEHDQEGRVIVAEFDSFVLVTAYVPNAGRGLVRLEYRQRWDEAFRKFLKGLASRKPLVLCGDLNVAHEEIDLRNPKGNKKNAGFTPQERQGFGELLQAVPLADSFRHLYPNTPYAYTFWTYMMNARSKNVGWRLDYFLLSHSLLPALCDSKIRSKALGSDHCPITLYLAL
procedure_summary: Inhibition of Ape1/ref-1 redox activity in presence of 0.02 mM DTT and human Hey-C2 cells nuclear extracts by EMSA
pIC50: −log10 of the molar value.
Catalogue of pIC50 values
endpoint: pIC50

1. C/C(=C\C1=C(Cl)C(=O)c2ccccc2C1=O)C(=O)NCCO = 6.00
2. C/C(=C/C1=C(Cl)C(=O)c2ccccc2C1=O)C(=O)O = 5.70
3. COC1=C(OC)C(=O)C(/C=C(\C)C(=O)O)=C(Cl)C1=O = 5.52
4. C/C(=C\C1=CC(=O)c2ccccc2C1=O)C(=O)O = 5.52
5. COC1=C(/C=C(\C)C(=O)O)C(=O)c2ccccc2C1=O = 6.00
6. COCC/C(=C\C1=C(Br)C(=O)c2ccccc2C1=O)C(=O)O = 6.00
